# Tested on: PCSK9 mRNA
# Test Details: PCSK9 siRNA screening in HepG2 cells (lipofectamine 2000 transfection, PCSK9 mRNA by Quantigene, normalized to GAP-DH)
# Format: cell-based, human
# Measurement Conditions: 100 nM siRNA
In the oligonucleotide strings, read from the 5' end, every base follows the letter of its sugar. An asterisk marks phosphorothioate; unmarked linkages are phosphodiester. Other units and linkages are bracketed, terminal groups are in braces. A string of capitals states the bases alone. d = 2'-deoxy (DNA); r = 2'-OH (RNA)
Property Measured: Mean percent remaining mRNA transcript at siRNA concentration/in cell type 100 nM/HepG2 (%)

# Substance, Result Number
data = [
    ("AD-9623: PCSK9 siRNA (sense rGrUrCrArGrCrUrCrCrArGrGrCrGrGrUrCrCrUdT*dT; antisense rArGrGrArCrCrGrCrCrUrGrGrArGrCrUrGrArCdT*dT)", 43),
    ("AD-9625: PCSK9 siRNA (sense rCrUrGrGrUrGrGrArGrGrUrGrUrArUrCrUrCrCdT*dT; antisense rGrGrArGrArUrArCrArCrCrUrCrCrArCrCrArGdT*dT)", 58),
    ("AD-9598: PCSK9 siRNA (sense rCrCrUrGrGrUrGrGrArGrGrUrGrUrArUrCrUrCdT*dT; antisense rGrArGrArUrArCrArCrCrUrCrCrArCrCrArGrGdT*dT)", 69),
    ("AD-9620: PCSK9 siRNA (sense rCrArGrGrArGrCrCrGrGrGrArCrGrUrCrArGrCdT*dT; antisense rGrCrUrGrArCrGrUrCrCrCrGrGrCrUrCrCrUrGdT*dT)", 44),
    ("AD-9635: PCSK9 siRNA (sense rGrUrCrUrGrCrCrGrArGrCrCrGrGrArGrCrUrCdT*dT; antisense rGrArGrCrUrCrCrGrGrCrUrCrGrGrCrArGrArCdT*dT)", 73),
    ("AD-9604: PCSK9 siRNA (sense rCrUrCrArGrCrCrArArCrCrCrGrCrUrCrCrArCdT*dT; antisense rGrUrGrGrArGrCrGrGrGrUrUrGrGrCrUrGrArGdT*dT)", 35),
    ("AD-9591: PCSK9 siRNA (sense rArCrUrGrUrCrCrCrUrCrCrUrUrGrArGrCrArCdT*dT; antisense rGrUrGrCrUrCrArArGrGrArGrGrGrArCrArGrUdT*dT)", 75),
    ("AD-9538: PCSK9 siRNA (sense rCrCrGrGrGrCrGrGrArUrGrArArUrArCrCrArGdT*dT; antisense rCrUrGrGrUrArUrUrCrArUrCrCrGrCrCrCrGrGdT*dT)", 79),
    ("AD-9584: PCSK9 siRNA (sense rCrCrCrUrGrGrCrGrGrGrUrGrGrGrUrArCrArGdT*dT; antisense rCrUrGrUrArCrCrCrArCrCrCrGrCrCrArGrGrGdT*dT)", 52),
    ("AD-9633: PCSK9 siRNA (sense rUrGrGrUrCrArCrCrGrCrUrGrCrCrGrGrCrArAdT*dT; antisense rUrUrGrCrCrGrGrCrArGrCrGrGrUrGrArCrCrAdT*dT)", 56),
]
